# System tested: T1, recombinant mouse ROR2 (extracellular portion) (mouse, UniProt Q9Z138 34-403)
# T1 construct: also called mROR2
# T1 sequence (Q9Z138 other isoform, or with tags, fused parts or gaps limits assumed): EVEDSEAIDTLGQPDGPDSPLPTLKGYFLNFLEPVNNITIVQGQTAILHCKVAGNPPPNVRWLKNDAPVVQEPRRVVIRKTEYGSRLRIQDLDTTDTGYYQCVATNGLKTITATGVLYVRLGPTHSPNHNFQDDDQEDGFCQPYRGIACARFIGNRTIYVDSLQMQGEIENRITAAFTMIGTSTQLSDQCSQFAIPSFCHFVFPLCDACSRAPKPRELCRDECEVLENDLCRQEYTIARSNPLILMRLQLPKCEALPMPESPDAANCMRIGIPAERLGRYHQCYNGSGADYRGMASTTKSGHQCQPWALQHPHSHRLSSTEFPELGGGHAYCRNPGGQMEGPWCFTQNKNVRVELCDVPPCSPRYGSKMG
# Protocol text: dot blot on nylon membrane, anti-human IgG-HRP
Measure name: binding result

h6E6-066 (antibody, human IgG1, V domains shown, human IgG1; also called clone 66) VH: EVQLVESGGGLVKPGGSLRLSCAASGFTFSAYGSSWVRQAPGKGLEWVSTISSGGGYTHYAPSVKGRFTISRDNAKNSLYLQMNSLRAEDTAVYYCARHPRDFSYAHDYWGQGTTVTVSS VL: EIVMTQSPATLSVSPGERATLSCKASQDVGHYVAWYQQKPGQAPRLLIYWASTRHTGIPARFSGSGSGTEFTLTISSLQSEDFAVYYCQQYNIYPWTFGQGTKVEIK
no binding
h6E6-007 (antibody, human IgG1, V domains shown, human IgG1; also called clone 7) VH: EVQLVESGGGLVKPGGSLRLSCAASGFTFSGYGLSWVRQAPGKGLEWVSTISSGGGYTHYAPSVKGRFTISRDNAKNSLYLQMNSLRAEDTAVYYCARHPRDFSYAQDYWGQGTTVTVSS VL: EIVMTQSPATLSVSPGERATLSCKASQDVGHYVAWYQQKPGQAPRLLIYWASTRATGIPARFSGSGSGTEFTLTISSLQSEDFAVYYCQQYNIYPWTFGQGTKVEIK
no binding
